Compiled IC50 measurements on NAD-dependent protein deacetylase sirtuin-2 (Homo sapiens) taken from the literature.
Sequence (Q8IXJ6 whole entry): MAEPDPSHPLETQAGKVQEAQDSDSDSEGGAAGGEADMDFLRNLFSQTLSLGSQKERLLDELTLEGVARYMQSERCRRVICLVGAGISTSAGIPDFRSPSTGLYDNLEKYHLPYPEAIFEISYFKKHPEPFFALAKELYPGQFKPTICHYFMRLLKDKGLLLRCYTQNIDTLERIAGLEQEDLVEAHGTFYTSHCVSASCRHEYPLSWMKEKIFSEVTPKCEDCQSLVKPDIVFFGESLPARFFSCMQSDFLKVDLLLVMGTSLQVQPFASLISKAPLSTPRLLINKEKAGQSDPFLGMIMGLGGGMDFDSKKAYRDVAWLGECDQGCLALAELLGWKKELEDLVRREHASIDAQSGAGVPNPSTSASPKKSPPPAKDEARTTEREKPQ
Write it as a number; the unit µM goes unstated.

Input: Value wanted: IC50 (NAD-dependent protein deacetylase sirtuin-2 (Homo sapiens)) of entry CC(C)(C)c1ccc(-c2noc(C(=O)NNC(=S)Nc3ccc(C(F)(F)F)cc3)n2)cc1
Output: 109

Input: Same for Cc1ccc(C(=O)Nc2cccc3cc(Oc4cncc(C(N)=O)c4)ccc23)cc1
Output: 0.489

Input: Same for O=c1[nH]c2cc([N+](=O)[O-])c3ccccc3c2[nH]1
Output: 12

Input: Same for O=C1CNC(=O)[C@H](CCCCNC(=S)CNC(=O)c2ccccc2Nc2cccc(OCCc3ccccc3)c2)N1
Output: 0.31

Input: Same for NC(=O)c1cncc(Oc2cccc3c(NC(=O)c4ccncc4)cccc23)c1
Output: 0.955
